test system: HL-60; experiment: Cytotoxicity against human HL60 cells by sulforhodamine B assay; format: functional, cell-based
pIC50: −log10 of the molar value.
Where pIC50 equals or exceeds 5, the correct label is TRUE; where it does not, the label is FALSE.

> print(dat)
                                    molecule  class
 1  COc1ccc(Cn2c3c(c4ccccc4c2=O)CCOc2ccccc2-3)cc1   TRUE
 2  CC[C@@]1(O)C(=O)OCc2c1cc1n(c2=O)Cc2cc3ccccc3nc2-1   TRUE
 3          COCOc1ccccc1-c1cc2ccccc2c(=O)n1C  FALSE
 4  COc1ccc(Cn2c(-c3ccccc3O)c(Br)c3ccccc3c2=O)cc1  FALSE
 5  Cc1ccc2c(=O)n(C)c3c(c2c1)C(C)Oc1ccccc1-3 (stereo unspecified)  FALSE
 6  C=COc1ccccc1-c1c(Br)c2ccccc2c(=O)n1Cc1ccc(OC)cc1  FALSE
 7    Cc1ccc2c3c(n(C)c(=O)c2c1)-c1ccccc1OCC3  FALSE
 8         Cn1c2c(c3ccccc3c1=O)CCOc1ccccc1-2  FALSE
 9       COCOc1ccccc1-c1cc2cc(C)ccc2c(=O)n1C  FALSE
10  COc1ccc(Cn2c3c(c4ccc(C)cc4c2=O)CCOc2ccccc2-3)cc1   TRUE
11  COc1cc2c3c(n(C)c(=O)c2cc1OC)-c1ccccc1OCC3  FALSE

----------
tested on: HeLa; assay: Cytotoxicity against human HeLa cells by sulforhodamine B assay; assay type: functional, cell-based
experimental-readout: log10 IC50 (log10 of the value in µM)

> print(dat)
                                   molecule  test.result
1    Cc1ccc2c3c(n(C)c(=O)c2c1)-c1ccccc1OCC3         0.94
2  COc1ccc(Cn2c3c(c4ccc(C)cc4c2=O)CCOc2ccccc2-3)cc1         0.66
3  CC1Oc2ccccc2-c2c1c1ccccc1c(=O)n2C (stereo unspecified)         1.60
4  COc1ccc(Cn2c(-c3ccccc3O)c(Br)c3cc(C)ccc3c2=O)cc1         1.31
5          COCOc1ccccc1-c1cc2ccccc2c(=O)n1C         1.81
6   COCOc1ccccc1-c1c(Br)c2ccc(C)cc2c(=O)n1C         1.25

----------
target: DNA topoisomerase 1 (Homo sapiens); test: Inhibition of DNA topoisomerase 1 assessed as relaxation of supercoiled Escherichia coli pBR322 DNA at 100 uM
Calls of active or inactive are those of the source. No cut-off for these calls is given here.
experimental-readout: inhibition

> print(dat)
                                   compound  test.result
1  COc1ccc(Cn2c(-c3ccccc3O)c(Br)c3ccccc3c2=O)cc1     inactive
2  C=COc1ccccc1-c1c(Br)c2cc(C)ccc2c(=O)n1Cc1ccc(OC)cc1     inactive
3          COCOc1ccccc1-c1cc2ccccc2c(=O)n1C     inactive
4  Cc1ccc2c(=O)n(C)c3c(c2c1)C(C)Oc1ccccc1-3 (stereo unspecified)        30.4%
5  COc1cc2c3c(n(C)c(=O)c2cc1OC)-c1ccccc1OCC3        98.2%
6   COCOc1ccccc1-c1c(Br)c2ccc(C)cc2c(=O)n1C     inactive
